# Tested on: pseudotype expressing the envelope glycoprotein of murine leukemia virus (MLV)
# ASSAY NOTES: MLV pseudotype infectivity, luciferase activity (peptide/cytotoxicity control)
# Assay type: cell-based
# TEST SETTINGS: peptide about 25 μM (asterisked peptides 10 μM or less); 72 h at 37° C.; vehicle 439,158
Known MLV number of luciferase units (lumens) produced after infection of a selection of sequences
PARAMETER: MLV number of luciferase units (lumens) produced after infection

SEQUENCE TEXT: GIKYFSMVGNWAKVLVVL [Peptide 77]
ASSAY RESULT: 321,076 luciferase units (lumens)

SEQUENCE TEXT: VGNWAKVLVVLLLFAGVD [Peptide 78]
ASSAY RESULT: 402,953 luciferase units (lumens)

SEQUENCE TEXT: LPTTQLRRHIDLLVGSAT [Peptide 62]
ASSAY RESULT: 415,014 luciferase units (lumens)

SEQUENCE TEXT: PRHHWTTQDCNCSIYPGH [Peptide 68]
ASSAY RESULT: 498,991 luciferase units (lumens)

SEQUENCE TEXT: AHWGVLAGIKYFSMVGNW [Peptide 76]
ASSAY RESULT: 473,757 luciferase units (lumens)

SEQUENCE TEXT: SAYQVRNSSGLYHVTNDC [Peptide 53]
ASSAY RESULT: 443,528 luciferase units (lumens)

SEQUENCE TEXT: AALVVAQLLRIPQAIMDM [Peptide 73]
ASSAY RESULT: 433,001 luciferase units (lumens)

SEQUENCE TEXT: LVVLLLFAGVDAETHVTG [Peptide 79]
ASSAY RESULT: 740,034 luciferase units (lumens)

SEQUENCE TEXT: SCLTVPASAYQVRNSSGL [Peptide 52]
ASSAY RESULT: 533,179 luciferase units (lumens)

SEQUENCE TEXT: TNDCPNSSVVYEAADAIL [Peptide 55]
ASSAY RESULT: 447,957 luciferase units (lumens)

SEQUENCE TEXT: MMNWSPTAALVVAQLLRI [Peptide 72]
ASSAY RESULT: 392,680 luciferase units (lumens)

SEQUENCE TEXT: GCVPCVREGNASRCWVAV [Peptide 58]
ASSAY RESULT: 329,895 luciferase units (lumens)

SEQUENCE TEXT: VATRDGKLPTTQLRRHID [Peptide 61]
ASSAY RESULT: 423,925 luciferase units (lumens)

SEQUENCE TEXT: QDCNCSIYPGHITGHRMA [Peptide 69]
ASSAY RESULT: 354,027 luciferase units (lumens)

SEQUENCE TEXT: WVAVTPTVATRDGKLPTT [Peptide 59]
ASSAY RESULT: 446,063 luciferase units (lumens)
